Hi there, I'd appreciate the recorded TGI for every entry that follows.
# System: UACC-257 melanoma
# Experimental Details: NCI tumour cell line growth inhibition, 48 h
Note: unit µM is implicit; provide only the numeric part.

Entry "C=C(C)C(=O)O[C@H]1C[C@@]2(C)OC(=CC2=O)/C(CO)=C\[C@H]2OC(=O)C(=C)[C@H]12" — recorded TGI = 0.213

Entry "O=C1c2c(c3c4cc(O)ccc4oc3c3[nH]c4ccccc4c23)C(=O)N1O" — recorded TGI = 6.32

Entry "Cn1ccnc1C(=O)/C=C/c1ccc(CNC(=O)c2ccc(Cl)cc2)cc1" — recorded TGI = 10.2

Entry "CC1=C(CN(O)C(N)=O)C2=C(C)C3(CC3)[C@](C)(O)C(=O)C2=C1" — recorded TGI = 31.3

###

Hi there, I'd appreciate the recorded TGI for every entry that follows.
# Tested on: SW-620 colon
# Experimental Details: NCI tumour cell line growth inhibition, 48 h
Note: unit µM is implicit; provide only the numeric part.

Entry "O=C1c2c(c3c4cc(O)ccc4oc3c3[nH]c4ccccc4c23)C(=O)N1O" — recorded TGI = 7.1

Entry "Cn1ccnc1C(=O)/C=C/c1ccc(CNC(=O)c2ccc(Cl)cc2)cc1" — recorded TGI = 5.88

Entry "C=C(C)C(=O)O[C@H]1C[C@@]2(C)OC(=CC2=O)/C(CO)=C\[C@H]2OC(=O)C(=C)[C@H]12" — recorded TGI = 0.147
